molecular target: Cytochrome P450 2D6 (Homo sapiens) (UniProt P10635); test: Cytochrome panel assay with activity outcomes; conditions: recombinant CYP, pro-luciferin dealkylation, luminescence, p450-cyp2d6; series mostly up to 57.1 µM
Sequence (P10635 whole entry, looked up): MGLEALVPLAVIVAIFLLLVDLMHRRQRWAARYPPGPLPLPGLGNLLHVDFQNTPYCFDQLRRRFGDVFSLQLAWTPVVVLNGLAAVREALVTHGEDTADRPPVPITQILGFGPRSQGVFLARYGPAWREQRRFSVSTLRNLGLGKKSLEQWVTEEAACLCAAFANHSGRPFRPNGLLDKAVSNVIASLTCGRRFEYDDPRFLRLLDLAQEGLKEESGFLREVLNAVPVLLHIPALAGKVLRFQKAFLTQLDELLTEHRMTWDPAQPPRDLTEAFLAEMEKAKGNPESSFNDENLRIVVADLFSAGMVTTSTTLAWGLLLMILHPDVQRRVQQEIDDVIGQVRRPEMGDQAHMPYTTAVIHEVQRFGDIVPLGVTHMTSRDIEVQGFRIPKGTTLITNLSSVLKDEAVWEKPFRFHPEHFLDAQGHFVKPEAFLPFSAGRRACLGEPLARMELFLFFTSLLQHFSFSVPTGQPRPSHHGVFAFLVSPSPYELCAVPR
The campaign covered roughly 16,000 compounds. About 2,600 (16%) were called active. Roughly 20% stayed inconclusive and do not appear here. The call rests on the fitted dose curve; in most records, active means well fitted curve in the direction sought with a large enough effect; inconclusive means small, poorly fitted or top-dose-only effect, or effect the other way; inactive means no such curve, though single readings can be large or run the other way. A selection follows.
Respond only with the outcome that fits, drawn from active, inactive

I'd appreciate the recorded outcome for OC[C@H]1O[C@H](n2cnc3c(NC4CCCC4)nc(Cl)nc32)[C@@H](O)[C@@H]1O from this test.
inactive

I'd appreciate the recorded outcome for CC1(C)Oc2ccc(NC(=O)c3ccco3)cc2O1 from this test.
inactive

I'd appreciate the recorded outcome for CCC(NC(=O)c1ccccc1NC(=O)c1ccco1)C(=O)NC1CCCCC1 (configuration not stated) from this test.
inactive

I'd appreciate the recorded outcome for Cc1ccc(Sc2c([N+](=O)[O-])ncn2C)cc1 from this test.
inactive

I'd appreciate the recorded outcome for CCOC(=O)N1CCN(C(=O)CNCc2cccs2)CC1 from this test.
active

New cases:
I'd appreciate the recorded outcome for O=C(O)c1cc2ccccc2c(Cc2cc3ccccc3c(C(=O)O)c2O)c1O (tested in a mixture with another compound) from this test.
inactive

I'd appreciate the recorded outcome for O=c1cc(CSc2ccccc2)[nH]c(=S)[nH]1 from this test.
inactive

I'd appreciate the recorded outcome for COc1ccccc1-c1cncnc1NCc1cccc(C)c1 from this test.
active

I'd appreciate the recorded outcome for COc1ccccc1NC(=O)CN1CCN(c2ccccc2F)CC1 from this test.
inactive

I'd appreciate the recorded outcome for Cn1c(=O)c(-c2ccc(F)c(F)c2)nc2cncnc21 from this test.
inactive
